Test system: RAW 264.7 cells
Test: In vitro toxicity (CellTiter-Glo cell viability), RAW 264.7;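 note: percent of untreated cells luminescence signal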
Type: cell-based
Settings: cirRNA (SEQ ID NO: 1) LNPs; RAW 264.7 cells
Description: RAW 264.7 and Hep G2 cells were transfected with 1 μg/mL RNA-LNPs. At 72 hours post transfection, cell viability was determined with the CellTiter-Glo® reagent kit, according to the kit protocol, measured by a luminometer. The cell viability was calculated according to the following formula: […]
With a cut-off of 90%, any In vitro Viability RAW strictly below it is called 1 (yes); any In vitro Viability RAW meeting it or above is called 0 (no).

| COMPOUND | QUALITATIVE_LABEL |
| --- | --- |
| CCCCCCCCCCCOC(=O)CCCCCN(CCCCCCCC(=O)OC(CCCCCCCC)CCCCCCCC)CCOC(=O)NCCN(C)C | 1 (yes) |
| CCCCCCCCCC(=O)OCCCCCCCN(CCCCCCCCOC(=O)C(CCCCCC)CCCCCCCC)CCOC(=O)NCCN(C)C (stereo not drawn) | 1 (yes) |
| CCCCCCCC/C=C\CCCCCCCCN(CCCCCCCCOC(=O)C(CCCCCC)CCCCCCCC)CCOC(=O)NCCCN(C)C (stereo not drawn) | 1 (yes) |
| CCCCCCCCCCC(CCCCCCCC)COC(=O)CCCCCN(CCCCCC(=O)OCC(CCCCCCCC)CCCCCCCCCC)CCCOC(=O)NCCN1CCCCC1 (stereo not drawn) | 0 (no) |
| CCCCCCCCC(CCCCCC)C(=O)OCCCCCCCCN(CCCCCCCCCCC(=O)OCCCCCC)CCOC(=O)NCCN(C)C (stereo not drawn) | 0 (no) |
| CCCCC/C=C\C/C=C\CCCCCCCCN(CCCCCCCC/C=C\CCCCCCCC)CCOC(=O)NCCN(C)C | 0 (no) |
| CCCCC/C=C\C/C=C\CCCCCCCCN(CCCCCCCC(=O)OC(CCCCCCCC)CCCCCCCC)CCCOC(=O)NCCCn1ccnc1 | 0 (no) |
| CCCCCCCCCCC(CCCCCCCC)COC(=O)CCCCCN(CCCCCCCCOC(=O)C(CCCCCC)CCCCCCCC)CCCOC(=O)NCCN(C)C (stereo not drawn) | 1 (yes) |
| CCCCCCCOC(=O)CCCCCCCCCN(CCCCCCCCCC(=O)OCCCCCCC)CCOC(=O)NCCN1CCCCC1 | 1 (yes) |
| CCCCCCCCCCC(CCCCCCCC)COC(=O)CCCCCN(CCCCCC(=O)OCC(CCCCCCCC)CCCCCCCCCC)CCCOC(=O)NCCCN(CC)CC (stereo not drawn) | 0 (no) |
| CCCCC/C=C\C/C=C\CCCCCCCCN(CCCCCCCC(=O)OC(CCCCCCCC)CCCCCCCC)CCOC(=O)NCc1ncc[nH]1 | 0 (no) |
| CCCCCCCCCCCOC(=O)CCCCCN(CCCCCC(=O)OCCCCCCCCCCC)CCOC(=O)NCCN(C)C | 0 (no) |
| CCCCCCCCC(CCCCCCCC)OC(=O)CCCCCCCN(CCCCCCCCOC(=O)C(CCCCCC)CCCCCCCC)CCOC(=O)NCCN(C)C (stereo not drawn) | 0 (no) |
| CCCCC/C=C\C/C=C\CCCCCCCCN(CCCCCCCC(=O)OC(CCCCCCCC)CCCCCCCC)CCOC(=O)NCCN1CCCCC1 | 1 (yes) |
| CCCCC/C=C\CCOC(=O)CCCCCN(CCCCCC(=O)OCC(CCCCCCCC)CCCCCCCCCC)CCOC(=O)NCCN1CCCCC1 (stereo not drawn) | 0 (no) |
| CCCCC/C=C\CCOC(=O)CCCCCN(CCCCCCCCOC(=O)C(CCCCCC)CCCCCCCC)CCOC(=O)NCCCN(CC)CC (stereo not drawn) | 1 (yes) |
| CCCCCCCCC(CCCCCC)C(=O)OCCCCCCCCN(CCCCCCCCOC(=O)C(CCCCCC)CCCCCCCC)CCOC(=O)NCc1ccc(NC(=O)OC(C)(C)C)cc1 (stereo not drawn) | 0 (no) |
| CCCCCCOC(=O)CCCCCCCCCCN(CCCCCCCCCCC(=O)OCCCCCC)CCOC(=O)NCCN1CCN(C)CC1 | 1 (yes) |
| CCCCC/C=C\CCOC(=O)CCCCCN(CCCCCCCCOC(=O)C(CCCCCC)CCCCCCCC)CCOC(=O)NCCN(C)C (stereo not drawn) [Lipid 189] | 1 (yes) |
| CCCCC/C=C\C/C=C\CCCCCCCCN(CCCCCCCC(=O)OC(CCCCCCCC)CCCCCCCC)CCCOC(=O)NCc1ncc[nH]1 | 0 (no) |
| CCCCCCCCC(CCCCCCCC)OC(=O)CCCCCCCN(CCCCCCCCOC(=O)C(CCCCCC)CCCCCCCC)CCCOC(=O)NCCN(C)C (stereo not drawn) | 0 (no) |
| CCCCCCCCC(CCCCCCCC)OC(=O)CCCCCCCN(CCCCCCCCOC(=O)C(CCCCCC)CCCCCCCC)CCCOC(=O)NCCN1CCN(C)CC1 (stereo not drawn) | 0 (no) |
| CCCCCCCCCCCOC(=O)CCCCCN(CCCCCCCCOC(=O)C(CCCCCC)CCCCCCCC)CCOC(=O)NCCN1CCCC1 (stereo not drawn) | 0 (no) |

###

System: Hep G2 cells
Assay: In vitro toxicity (CellTiter-Glo cell viability), Hep G2;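 note: percent of untreated cells luminescence signal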
Format: cell-based
Settings: cirRNA (SEQ ID NO: 1) LNPs; Hep G2 cells
Experimental: RAW 264.7 and Hep G2 cells were transfected with 1 μg/mL RNA-LNPs. At 72 hours post transfection, cell viability was determined with the CellTiter-Glo® reagent kit, according to the kit protocol, measured by a luminometer. The cell viability was calculated according to the following formula: […]
Each record here notes measured In vitro Viability HepG2.
READOUT: In vitro Viability HepG2 (%)

| COMPOUND | READOUT | EXPERIMENTAL_VALUE |
| --- | --- | --- |
| CCCCC/C=C\C/C=C\CCCCCCCCN(CCCCCCCC(=O)OC(CCCCCCCC)CCCCCCCC)CCOC(=O)NCCN(C)C [Lipid 129] | In vitro Viability HepG2 | 79 |
| CCCCC/C=C\C/C=C\CCCCCCCCN(CCCCCCCC(=O)OC(CCCCCCCC)CCCCCCCC)CCOC(=O)NCCCN(C)C [Lipid 130] | In vitro Viability HepG2 | 91 |
| CCCCCCCCC(CCCCCC)C(=O)OCCCCCCCCN(CCCCCCCCOC(=O)C(CCCCCC)CCCCCCCC)CCCNCCCN(CC)CC (stereo not shown) [Lipid 385] | In vitro Viability HepG2 | 74 |
| CCCCCCCCCCCOC(=O)CCCCCN(CCCCCCCC(=O)OC(CCCCCCCC)CCCCCCCC)CCOC(=O)NCCCn1ccnc1 [Lipid 163] | In vitro Viability HepG2 | 92 |
| CCCCCCCCC(CCCCCC)C(=O)OCCCCCCCCN(CCCCCCCCOC(=O)C(CCCCCC)CCCCCCCC)CCCOC(=O)NCCN(C)C (stereo not shown) [Lipid 374] | In vitro Viability HepG2 | 70 |
| CCCCCCCOC(=O)CCCCCCCCCN(CCCCCCCCCC(=O)OCCCCCCC)CCOC(=O)NCCN1CCCCC1 [Lipid 118] | In vitro Viability HepG2 | 19 |
| CCCCCCCCCCCOC(=O)CCCCCN(CCCCCC(=O)OCCCCCCCCCCC)CCOC(=O)NCc1ncc[nH]1 [Lipid 155] | In vitro Viability HepG2 | 111 |

###

Assay: LNP size and polydispersity index (PDI) by dynamic light scattering
Assay type: physicochemical
Settings: LNP with mRNA (SEQ ID NO: 2)

| COMPOUND | PDI |
| --- | --- |
| CCCCCCCCC(CCCCCCCC)OC(=O)CCCCCCCN(CCCCCCCCOC(=O)C(CCCCCC)CCCCCCCC)CCOC(=O)NCCN(C)C (stereo not shown) | 0.09823 |
| CCCCC/C=C\C/C=C\CCCCCCCCN(CCCCCCCC(=O)OC(CCCCCCCC)CCCCCCCC)CCOC(=O)NCCN1CCCC1 | 0.1021 |
| CCCCCCCCC(CCCCCC)C(=O)OCCCCCCCCN(CCCCCCCCCCC(=O)OCCCCCC)CCOC(=O)NCCN(C)C (stereo not shown) | 0.09046 |
| CCCCC/C=C\C/C=C\CCCCCCCCN(CCCCCCCC(=O)OC(CCCCCCCC)CCCCCCCC)CCCOC(=O)NCCN1CCCCC1 | 0.1831 |
| CCCCC/C=C\C/C=C\CCCCCCCCN(CCCCCCCC(=O)OC(CCCCCCCC)CCCCCCCC)CCOC(=O)NCCN(C)C | 0.1768 |
| CCCCCCCCC(CCCCCCCC)OC(=O)CCCCCCCN(CCCCCCCCOC(=O)C(CCCCCC)CCCCCCCC)CCOC(=O)NCCN1CCCC1 (stereo not shown) | 0.07065 |
| CCCCCCCCC(CCCCCC)C(=O)OCCCCCCCCN(CCCCCCCCOC(=O)C(CCCCCC)CCCCCCCC)CCCOC(=O)NCCN1CCCCCC1 (stereo not shown) | 0.1802 |
| CCCCCCCCC(CCCCCC)C(=O)OCCCCCCCCN(CCCCCCCCOC(=O)C(CCCCCC)CCCCCCCC)CCCOC(=O)NCc1ncc[nH]1 (stereo not shown) | 0.008186 |
| CCCCC/C=C\C/C=C\CCCCCCCCN(CCCCCCCC/C=C\C/C=C\CCCCC)CCOC(=O)CCCN(C)C [Lipid A, reference compound] | 0.2719 |
| CCCCC/C=C\C/C=C\CCCCCCCCN(CCCCCCCC/C=C\CCCCCCCC)CCOC(=O)NCc1ncc[nH]1 | 0.1057 |
| CCCCC/C=C\C/C=C\CCCCCCCCN(CCCCCCCC(=O)OC(CCCCCCCC)CCCCCCCC)CCCOC(=O)NCc1ncc[nH]1 | 0.1219 |
| CCCCCCCCC(CCCCCCCC)OC(=O)CCCCCCCN(CCCCCCCCOC(=O)C(CCCCCC)CCCCCCCC)CCCOC(=O)NCCN1CCCCCC1 (stereo not shown) | 0.2144 |
| CCCCC/C=C\C/C=C\CCCCCCCCN(CCCCCCCC(=O)OC(CCCCCCCC)CCCCCCCC)CCCOC(=O)NCCN(C)C | 0.1592 |
